Examples of substances with documented IC50 follow.
Test System: TCF/LEF luciferase reporter in DLD1 cells (Homo sapiens)
Sequence (P35222 2-781): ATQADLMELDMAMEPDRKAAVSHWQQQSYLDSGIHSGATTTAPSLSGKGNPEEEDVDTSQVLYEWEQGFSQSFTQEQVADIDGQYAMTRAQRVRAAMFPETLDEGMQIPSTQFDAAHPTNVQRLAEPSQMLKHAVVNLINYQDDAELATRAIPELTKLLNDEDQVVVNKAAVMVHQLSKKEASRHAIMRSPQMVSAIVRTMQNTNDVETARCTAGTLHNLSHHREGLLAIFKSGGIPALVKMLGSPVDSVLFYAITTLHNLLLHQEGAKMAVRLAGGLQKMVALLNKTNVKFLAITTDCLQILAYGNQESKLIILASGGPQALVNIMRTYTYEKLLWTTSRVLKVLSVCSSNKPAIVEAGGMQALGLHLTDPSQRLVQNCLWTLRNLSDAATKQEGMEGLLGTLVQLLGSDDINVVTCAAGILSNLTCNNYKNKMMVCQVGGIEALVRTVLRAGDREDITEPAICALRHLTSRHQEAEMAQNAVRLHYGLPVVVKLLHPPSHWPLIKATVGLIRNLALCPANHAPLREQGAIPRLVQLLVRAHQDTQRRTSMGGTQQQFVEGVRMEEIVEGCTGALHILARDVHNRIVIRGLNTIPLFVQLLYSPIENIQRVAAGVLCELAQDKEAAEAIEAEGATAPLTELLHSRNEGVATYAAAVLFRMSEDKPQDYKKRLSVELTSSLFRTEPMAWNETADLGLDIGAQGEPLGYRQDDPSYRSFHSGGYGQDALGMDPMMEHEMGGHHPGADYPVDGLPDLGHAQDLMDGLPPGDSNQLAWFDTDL
Protocol Notes: TCF reporter assay in DLD1 cells (4% or 20% FBS)
Type: cell-based
Measurement Context: read-out: DLD1 4% Abs IC50; DLD1 TCF reporter, 4% FBS, absolute IC50
Measured Parameter: IC50

| Substance | Test System | Result |
| --- | --- | --- |
| Ac-PL3-Asp-Npg-B5-Asp-3COOHF-Aib-Ala-Phe-sAla*3-PyrS2-3Thi-BztA-TriAzLys*3-Ala-NH2 [I-336] | TCF/LEF luciferase reporter in DLD1 cells (Homo sapiens) | 1000 to 5000 nM |
| Ac-PL3-Asp-Npg-B5-Asp-3COOHF-Ala-Ala-Phe-sAla*3-PyrS2-3Thi-BztA-TriAzLys*3-Ala-NH2 [I-338] | TCF/LEF luciferase reporter in DLD1 cells (Homo sapiens) | ≤ 1000 nM |
| Ac-PL3-Asp-Npg-B5-Asp-3COOHF-Ala-Ala-Phe-TriAzLys*3-PyrS2-3Thi-BztA-sAla*3-Ala-NH2 [I-337] | TCF/LEF luciferase reporter in DLD1 cells (Homo sapiens) | ≤ 1000 nM |
| Ac-PL3-Asp-Npg-B5-Asp-3COOHF-Aib-Ala-Phe-Lys*3-PyrS2-3Thi-BztA-GlnR*3-Glu-Ala-NH2 [I-342] | TCF/LEF luciferase reporter in DLD1 cells (Homo sapiens) | ≤ 1000 nM |
